Target Or Test System: human HER3 endogenously expressed on human cancer cells (SK-Br-3, BT-474, MCF7) (human, UniProt P21860 20-1342)
Assay Remarks: cell-based or functional assay
Readout Label: BT474 pHER3 % inhibition (%)
The response must be a number in % with no trailing unit.

Some solved entries appear below for comparison.
MOR12606 (antibody, human IgG1, kappa, V domains shown, Tested as IgG) VH: QVQLVQSGAEVKKPGSSVKVSCKASGGTFSSYAISWVRQAPGQGLEWMGLIIPRYGKARYAQKFQGRVTITADESTSTAYMELSSLRSEDTAVYYCARNWPYYYMDFWGQGTLVTVSS VL: DIVLTQSPATLSLSPGERATLSCRASQNIVFNLAWYQQKPGQAPRLLIYDASNRATGVPARFSGSGSGTDFTLTISSLEPEDFAVYYCQQTKSKPSPTFGQGTKVEIKR :: 73
MOR13666 (antibody, human IgG1, lambda, V domains shown, Tested as IgG) VH: QVQLVQSGAEVKKPGASVKVSCKASGYTFTSYDIHWVRQAPGQGLEWMGRIDPYSGNTNYAQKFQGRVTMTRDTSISTAYMELSRLRSEDTAVYYCARGSFYTRDSYFDVWGQGTLVTVSS VL: DIALTQPASVSGSPGQSITISCTGTSSDVGTYNQVSWYQQHPGKAPKLMIYGVSKRPSGVSNRFSGSKSGNTASLTISGLQAEDEADYYCSTTTYSFHMVFGGGTKLTVLG :: 65

Consider the record given below.
Ask | Which BT474 pHER3 % inhibition value is on record for MOR12514 (antibody, human IgG1, lambda, V domains shown, Tested as IgG) VH: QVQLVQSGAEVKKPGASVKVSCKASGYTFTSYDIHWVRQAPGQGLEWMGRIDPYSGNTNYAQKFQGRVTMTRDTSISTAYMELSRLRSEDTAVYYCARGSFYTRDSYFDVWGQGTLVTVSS VL: DIALTQPASVSGSPGQSITISCTGTSSDVGTYNQVSWYQQHPGKAPKLMIYGVSKRPSGVSNRFSGSKSGNTASLTISGLQAEDEADYYCQVRDMSLFDVFGGGTKLTVLG ?
Reply | 70
